Known melting point of a selection of molecules

Some solved cases for reference:
# molecule, melting point
records = [
    ("O=S(=O)(Cl)c1ccc2oc(-c3ccncc3)cc2c1", "210 °C"),
    ("O=C1c2ccccc2C(=O)N1c1nc(Cl)nc(Cl)n1", "175 to 179 °C"),
    ("CCc1ccc(CC2CNC(=O)O2)cc1 (stereo not given)", "133 to 134 °C"),
    ("Cc1ncc(Cn2c(NC3CCNCC3)nc3ccccc32)o1", "227 °C"),
    ("CC(=O)NC(=S)NCC1CC2c3cccc4[nH]cc(c34)CC2N(C)C1 (stereo not given)", "204 to 205 °C"),
    ("CN1CCC(c2nn(C(=O)c3ccc(F)cc3)c3ccccc23)CC1", "132 to 133 °C"),
    ("O=c1nc(NCc2ccccc2F)c(F)cn1-c1ccsc1", "75 to 78 °C"),
    ("CC(C)(C)CC(C)(C)NC(=O)Nc1ccccc1CCc1cc(C(C)(C)C)c(O)c(C(C)(C)C)c1", "168 to 169 °C"),
    ("O=C1C(O)=C([N+](=O)[O-])C(=O)c2ccc(F)cc21", "152 °C"),
]

Record CCCSc1nc(-c2ccc(C#N)cc2)cn1-c1ccc(I)cc1 , field melting point: 110 to 115 °C

---

Known melting point of a selection of molecules

Some solved cases for reference:
# molecule, result
records = [
    ("CC(=O)Nc1ccc(Sc2c(NCc3ccccc3)cc(C(=O)O)cc2S(N)(=O)=O)cc1", "255 to 258 °C"),
    ("Oc1cccc2c1CCC(O)C2 (stereo not given)", "126 to 128 °C"),
    ("CCN1CC=C(c2c[nH]c3ccc([N+](=O)[O-])cc23)CC1", "188 to 190 °C"),
    ("CC(=O)CCCC(=O)NC(CC(=O)C(=O)C(C)(Cc1c[nH]c2ccccc12)NC(=O)OC1C2CC3CC(C2)CC1C3)c1ccccc1 (stereo not given)", "69 to 71 °C"),
]

Proceeding to the next molecule to report its melting point.
Record COc1ccc2c(c1)c(N1CCN(C#N)CC1)nn2S(=O)(=O)c1ccccc1 , field melting point: 171 to 173 °C

---

quantity_name: melting point

Some solved cases for reference:
# compound, melting point
rows = [
    ("COc1ccc(C2CC(=O)N(c3c(C)c(C)c4c(c3C)[C@@H](c3ccc(C)cc3)C(C)(C)O4)C(=O)C2)cc1", "207 to 209 °C"),
    ("O=c1oc(-c2cccc(Oc3ccccc3)c2)cc(O)c1SCCc1ccccc1", "114 to 115 °C"),
]

Record CC(C)(C)c1cc(-c2c(S)ssc2=S)cc(C(C)(C)C)c1O , field melting point: 182 °C

Record O=C(O)Cn1cc(Cl)c(-c2cc(Cl)cc(Cl)c2)n1 , field melting point: 182 °C

Record CCNC(=O)c1cnn(C)c1 , field melting point: 103 to 106 °C

Record CC1(C)Cc2nsc(=Nc3c(F)cc(Cl)c4nc(Cl)sc34)n2C1 , field melting point: 134 to 136 °C

Record O=C(Nc1cccc(Cl)c1)NC1CC(C2CCCCC2)c2ccccc2NC1=O (stereo unspecified) , field melting point: 222 to 225 °C

Record CCSCC1=C(O)CC(C)(C)CC1=O , field melting point: 134 °C

Record COC(=O)c1ccc(OC)cc1OC(=S)N(C)C , field melting point: 117 to 120 °C

Record CC(C)c1ccc(OCCCN2CCN(c3ccc(Cl)nn3)CC2)cc1 , field melting point: 125 to 127 °C

Record CN(C)c1nc2[nH]c3c(c(=O)n2n1)SCCC3 , field melting point: 130 °C

Record CCCCn1c(=O)c(NC(=O)Nc2cc(CO)ccc2C(C)(C)C)c(-c2cccc(OC)c2)c2cccnc21 , field melting point: 102 to 105 °C
